Origin of the recorded values: patent US4315928A

tested on: green beans; experiment: Phytotoxicity Test, green beans; assay type: in vivo; parameters: key: A rating of 1 indicates no perceptible injury; ratings of 2, 3 and 4 indicate intermediate degrees of injury; ratings of 2, 3 and 4 indicate intermediate degrees of injury; ratings of 2, 3 and 4 indicate intermediate degrees of injury; 5 indicates the plant was dead; details: ten days
# Crop Phytotoxicity, Injury Rating at 2500 ppm, GB annotations
Just the number, please, no unit attached.

Worked examples, 2 compounds total:
CC(=NOC(=O)N(C)SN(C)C)SC(C)C: 2
CCN(CC)SN(C)C(=O)ON=C(C)SC: 2

Problem: Lab note: need Crop Phytotoxicity, Injury Rating at 2500 ppm, GB for CN(SN1CCOCC1)C(=O)ON=C1SCC(=O)NC1(C)C on green beans, anyone have it?
Result: 1

Problem: Lab note: need Crop Phytotoxicity, Injury Rating at 2500 ppm, GB for CCCCN(CCCC)SN(C)C(=O)ON=C(C)SC on green beans, anyone have it?
Result: 1

Problem: Lab note: need Crop Phytotoxicity, Injury Rating at 2500 ppm, GB for CN(C)SN(C)C(=O)ON=C1CSCCS1 on green beans, anyone have it?
Result: 1

Problem: Lab note: need Crop Phytotoxicity, Injury Rating at 2500 ppm, GB for CSC(C)(C)C=NOC(=O)N(C)SN1CCOCC1 on green beans, anyone have it?
Result: 1

Problem: Lab note: need Crop Phytotoxicity, Injury Rating at 2500 ppm, GB for CSC(C)=NOC(=O)N(C)SN1CCOCC1 on green beans, anyone have it?
Result: 1

Problem: Lab note: need Crop Phytotoxicity, Injury Rating at 2500 ppm, GB for CC(=NOC(=O)N(C)SN1CCOCC1)SCCC#N on green beans, anyone have it?
Result: 1

====

# Crop Phytotoxicity, Injury Rating at 2500 ppm, SOYBN. annotations
Tested on: soybeans
Assay: Phytotoxicity Test, soybeans
Assay type: in vivo
Design: key: A rating of 1 indicates no perceptible injury; ratings of 2, 3 and 4 indicate intermediate degrees of injury; ratings of 2, 3 and 4 indicate intermediate degrees of injury; ratings of 2, 3 and 4 indicate intermediate degrees of injury; 5 indicates the plant was dead
Details: ten days
Experimental: Suspensions of the test compounds were prepared by dissolving one gram of compound in 50 milliliters of acetone in which had been dissolved 0.1 gram (10 percent of the weight of compound) of an alkylphenoxy polyethoxyethanol surfactant, as an emulsifying or dispersing agent. The resulting solution was mixed into 150 milliliters of water to give roughly 200 milliliters of a suspension containing the compound in finely divided form. […]

Worked examples, 5 compounds total:
CSC(C)(C)C=NOC(=O)N(C)SN1CCOCC1 [Compound 6]: 1
CC(=NOC(=O)N(C)SN(C)C)SC(C)C [Compound 24]: 3
CN(SN1CCOCC1)C(=O)ON=C1CSCCS1 [Compound 5]: 1
CSC(C)=NOC(=O)N(SN1CCOCC1)C(C)C [Compound 14]: 1
CN(SN1CCOCC1)C(=O)ON=CC(C)(C)C#N [Compound 10]: 1

Problem: Lab note: need Crop Phytotoxicity, Injury Rating at 2500 ppm, SOYBN. for CC1OCSC1=NOC(=O)N(C)SN1CCOCC1 (stereo not shown) [Compound 9] on soybeans, anyone have it?
Result: 2

Problem: Lab note: need Crop Phytotoxicity, Injury Rating at 2500 ppm, SOYBN. for CC(=NOC(=O)N(C)SN1CCOCC1)SCCC#N [Compound 8] on soybeans, anyone have it?
Result: 1

Problem: Lab note: need Crop Phytotoxicity, Injury Rating at 2500 ppm, SOYBN. for CSC(C)=NOC(=O)N(C)SN1CCCCC1 [Compound 12] on soybeans, anyone have it?
Result: 1

Problem: Lab note: need Crop Phytotoxicity, Injury Rating at 2500 ppm, SOYBN. for CCSC(C)=NOC(=O)N(C)SN1CCOCC1 [Compound 4] on soybeans, anyone have it?
Result: 2

Problem: Lab note: need Crop Phytotoxicity, Injury Rating at 2500 ppm, SOYBN. for CCN(CC)SN(C)C(=O)ON=C(C)SC [Compound 17] on soybeans, anyone have it?
Result: 2

Problem: Lab note: need Crop Phytotoxicity, Injury Rating at 2500 ppm, SOYBN. for CN(SN1CCOCC1)C(=O)ON=C1SCC(=O)NC1(C)C [Compound 16] on soybeans, anyone have it?
Result: 1

Problem: Lab note: need Crop Phytotoxicity, Injury Rating at 2500 ppm, SOYBN. for CCCCN(CCCC)SN(C)C(=O)ON=C(C)SC [Compound 28] on soybeans, anyone have it?
Result: 1

Problem: Lab note: need Crop Phytotoxicity, Injury Rating at 2500 ppm, SOYBN. for CSC(C)=NOC(=O)N(C)SN1CCOCC1 [Compound 3] on soybeans, anyone have it?
Result: 1
